These data points were gathered from ChEMBL document CHEMBL1201862.

- Tested on: NCI/ADR-RES
- procedure-text: NCI tumour cell line growth inhibition, 48 h
The source made the active and inactive calls. Rule as the data show it: active = GI50 up to about 1.1 µM and inactive = higher.
Your response should consist of one outcome taken from active, inactive

So what was the verdict on C/C(=N/NC(=S)N(C)CCc1ccccn1)c1cnccn1 in this test? active

What did this assay record as the result for O=[N+]([O-])c1cc(Br)cc2cc(Cl)cnc12 ? inactive

What call does the record list for COC(=O)C(CCC1C=CCC1)/N=C\c1ccccc1 (configuration not stated) ? inactive

Returns: the outcome recorded for NC(=O)NNc1nc(-c2ccccc2)cs1 in this assay. inactive

What did the test return for Clc1ccccc1/C=C/c1nsc(/C=C/c2ccccc2Cl)n1 ? inactive

GET /call?item= CC1=NNC(=O)C1C1CC(c2c[nH]c3ccccc23)=NN(c2ccccc2)C1=O (configuration not stated) returns the recorded outcome of this test. inactive

Check the results log: what was the call for CC1CC2OC(=N)C1(C#N)C2(C#N)C#N (configuration not stated) ? inactive

What outcome does the record of this test show for Cc1ccc(S(=O)(=O)NNC(=O)c2cc(C)ccc2NC(=O)C23CC4CC(CC(C4)C2)C3)cc1 ? inactive

For this compound, state the assay outcome: CCOC(=O)C1C(c2ccc(OC)cc2)c2c(nn(-c3ccccc3)c2O)CC1(O)OCC (configuration not stated) inactive

# lookup: test call for O=C1C=CC(=O)N1c1ccc2c(c1)Cc1cc(NC(=O)C(F)(F)F)ccc1-2 inactive

Test call, this compound: Cc1cnc2sn(-c3ccc(Oc4ccccc4)cc3)c(=O)c2c1 inactive

Answer briefly: the call reported for COc1cc(-c2cc(=O)c3cc4c(cc3[nH]2)OCO4)cc(OC)c1O in this assay. inactive

Lab log entry: CSc1nc(NC2CC2)c2c(n1)Sc1nc3ccccc3n1N=C2 — outcome as called in the assay? inactive

GET /call?item= CN(C)CCNC(=O)c1cccc2cc([N+](=O)[O-])ccc12 returns the recorded outcome of this test. inactive

What classification did CC(C)(C)C1(O)C=C(O)C(=O)N1NC(=O)c1ccccc1Nc1ccccc1 (configuration not stated) end up with in this test? inactive

Hi team, can someone confirm the assay call for CNC(=O)OCc1nc(SC)n(C)c1CO ? inactive

Each compound tested received a call. Report the one for Cc1ccc2nc(C(C)C)c(=O)[nH]c2c1 . inactive

Tell me the assay call for CCOC(=O)NN(C(=O)OCC)C(=C(c1ccccc1)N1CCOCC1)N(NC(=O)OCC)C(=O)OCC please. inactive

How was COc1cc(COC(=O)N[C@H](C(=O)O)C(C)(C)C)c([N+](=O)[O-])cc1OC classified in this test? inactive

Field: outcome | Entry: O=S(=O)(O)c1cc(Cl)c(O)c2ncc(Cl)cc12 inactive

Please share the test call associated with CCCn1c(=O)c2nn3c(=O)n(CCC)c(=O)c3nn2c1=O . inactive

Per the assay record, what outcome was assigned to COc1cccc2c1C(=O)c1c(O)c3c(c(O)c1C2=O)C[C@@](O)(C(=O)CO)C[C@@H]3OC1CC(N2CCOCC2C#N)C(O)C(C)O1 (some centres not stated) ? active
